Below: a set of entries, each annotated with reported IC50.
biological target: PE-labeled human PD-L1-Ig binding to Jurkat cell line over-expressing human PD-1 (Jurkat-PD-1) (Homo sapiens); construct: expressed in transfected cells; host or cells: Jurkat; assay: Jurkat-PD-1 Cell Binding High-Content Screening Assay (CBA): Method 1; details: Jurkat-hPD-1 cells, PE-labeled PD-L1-Ig 20 nM final; read-out: Jurkat HPDL1 PD1 IC50 (uM) (Method 1)
Sequence (Q15116 25-288): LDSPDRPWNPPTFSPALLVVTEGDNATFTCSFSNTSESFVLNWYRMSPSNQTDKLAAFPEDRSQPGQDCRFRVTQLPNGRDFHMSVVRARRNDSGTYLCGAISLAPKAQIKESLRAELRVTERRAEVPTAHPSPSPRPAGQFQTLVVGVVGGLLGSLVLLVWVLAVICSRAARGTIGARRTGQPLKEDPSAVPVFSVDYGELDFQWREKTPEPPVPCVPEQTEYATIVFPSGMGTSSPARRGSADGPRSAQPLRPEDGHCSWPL
Bridge positions count the residues as written; N and C are the ends. Square brackets hold non-standard residues; d marks the D form. Peptide text beside a SMILES is read from it. Bip = N[C@@H](Cc1ccc(-c2ccccc2)cc1)C(=O)O; NMeA = CN[C@@H](C)C(=O)O; Dab = NCC[C@H](N)C(=O)O
All answers are understood in µM, so give the number only.

Data request: Supply measured IC50 of CC(C)C[C@@H]1NC(=O)[C@H](CCN)NC(=O)[C@@H](CC(C)C)NC(=O)[C@H](C)N(C)C(=O)[C@H](CCCNC(=N)N)NC(=O)[C@H](Cc2ccc(-c3ccccc3)cc2)NC(=O)[C@H](C(C)C)NC(=O)[C@H](Cc2c[nH]c3ccccc23)NC(=O)[C@H](CC(=O)O)NC(=O)[C@H](Cc2ccc(O)cc2)NC(=O)[C@H](CC(N)=O)NC(=O)CSC[C@@H](C(=O)N[C@H](C)C(N)=O)NC(=O)[C@H]([C@@H](C)O)NC(=O)[C@H](C(C)C)NC1=O [Compound 1183] ({CH2CO}-NYDWV[Bip]R[NMeA][dL][Dab]LVTC[dA]-NH2; thioether N-14) in your reply.
Data returned: 0.15

Data request: Supply measured IC50 of CC(C)C[C@@H]1NC(=O)[C@H](Cc2c[nH]c3ccccc23)NC(=O)[C@H](CC(=O)O)NC(=O)[C@H](Cc2ccc(O)cc2)NC(=O)[C@H](CC(N)=O)NC(=O)CSC[C@@H](C(=O)N[C@@H](C)C(N)=O)NC(=O)[C@H](CO)NC(=O)[C@H](C(C)C)NC(=O)[C@H](CC(C)C)NC(=O)[C@H](CCN)NC(=O)[C@@H](C)NC(=O)[C@H](C)N(C)C(=O)[C@H](CCCNC(=N)N)NC(=O)[C@H](Cc2ccc(-c3ccccc3)cc2)NC1=O [Compound 1758] ({CH2CO}-NYDWL[Bip]R[NMeA][dA][Dab]LVSCA-NH2; thioether N-14) in your reply.
Data returned: 0.03

Data request: Supply measured IC50 of CC(C)C[C@@H]1NC(=O)[C@H](CCCNC(=N)N)NC(=O)[C@@H](CC(C)C)NC(=O)[C@H](C)N(C)C(=O)[C@H](CCC(=O)O)NC(=O)[C@H](Cc2ccc(-c3ccccc3)cc2)NC(=O)[C@H](C(C)C)NC(=O)[C@H](Cc2c[nH]c3ccccc23)NC(=O)[C@H](CC(=O)O)NC(=O)[C@H](Cc2ccc(O)cc2)NC(=O)[C@H](CC(N)=O)NC(=O)CSC[C@@H](C(=O)N[C@@H](C)C(N)=O)NC(=O)[C@H]([C@@H](C)O)NC(=O)[C@H](C(C)C)NC1=O [Compound 1254] ({CH2CO}-NYDWV[Bip]E[NMeA][dL]RLVTCA-NH2; thioether N-14) in your reply.
Data returned: 0.03
